System: behaviors of compound-treated mice
assay.remarks: Neuropharmacological Assay (SmartCube)
Type: in vivo
condition.context: i.p. 15 min before behavioral test, most efficacious dose(s) of 3 doses
Structures can show the parent of a compound that is named as a salt.
property.label: CE: cognitive enhancer (probability that activity matches class)

Consider the worked cases shown below.
NCC1OCCc2c(-c3cncs3)cccc21 (centres unmarked) [Compound 59, hydrochloride salt] :: + (LOQ ≤ + <5%)
NC[C@@H]1OCCCc2c(-c3cncs3)cccc21 (single isomer, unassigned) [Compound 170, hydrochloride salt] :: + (LOQ ≤ + <5%)
CNC[C@H]1OCCc2c(-c3cocn3)cccc21 [Compound 103, HCl salt] :: + (LOQ ≤ + <5%)
CNC[C@@H]1OCCc2c(-c3cncs3)cccc21 (single isomer, unassigned) [Compound 68, hydrochloride salt] :: + (LOQ ≤ + <5%)
CNC[C@H]1OCCc2c(-c3ccnnc3)cccc21 (single isomer, unassigned) [Compound 77, hydrochloride salt] :: + (LOQ ≤ + <5%)
CNC[C@@H]1OCCc2c(-c3cnco3)cccc21 (single isomer, unassigned) [Compound 96, hydrochloride salt] :: + (LOQ ≤ + <5%)
CNC[C@H]1OCCc2c(-c3ccccn3)cccc21 (single isomer, unassigned) [Compound 44, hydrochloride salt] :: + (LOQ ≤ + <5%)
NC[C@H]1OCCCc2c(-c3ccncn3)cccc21 (single isomer, unassigned) :: + (LOQ ≤ + <5%)

Data request: Report CE: cognitive enhancer (probability that activity matches class) from behaviors of compound-treated mice testing of CNC[C@H]1OCCc2cc(-c3cccnn3)ccc21 (single isomer, unassigned) [Compound 32, hydrochloride]
Data returned: + (LOQ ≤ + <5%)

Data request: Report CE: cognitive enhancer (probability that activity matches class) from behaviors of compound-treated mice testing of CNC[C@@H]1OCCc2ccc(-c3ccncc3)cc21 [Compound 49, hydrochloride]
Data returned: ++ (5% ≤ ++ <25%)

Data request: Report CE: cognitive enhancer (probability that activity matches class) from behaviors of compound-treated mice testing of c1cc(-c2ccncc2)c2c(c1)[C@H](CNC1CC1)OCC2 (single isomer, unassigned) [Compound 180, hydrochloride salt]
Data returned: + (LOQ ≤ + <5%)

Data request: Report CE: cognitive enhancer (probability that activity matches class) from behaviors of compound-treated mice testing of CNC[C@@H]1OCCc2cccc(-c3cccnc3)c21 (single isomer, unassigned) [Compound 1, bis-hydrochloride]
Data returned: ++ (5% ≤ ++ <25%)

Data request: Report CE: cognitive enhancer (probability that activity matches class) from behaviors of compound-treated mice testing of CNC[C@H]1OCCc2c(-c3ccnc(C)c3)cccc21 (single isomer, unassigned) [Compound 121, hydrochloride salt]
Data returned: + (LOQ ≤ + <5%)

Data request: Report CE: cognitive enhancer (probability that activity matches class) from behaviors of compound-treated mice testing of NC[C@@H]1OCc2c(-c3ccncc3)cccc21 (single isomer, unassigned) [Compound 37, hydrochloride salt]
Data returned: + (LOQ ≤ + <5%)

Data request: Report CE: cognitive enhancer (probability that activity matches class) from behaviors of compound-treated mice testing of CNCC1OCCc2c(-c3ccnnc3)cccc21 (centres unmarked) [Compound 54, hydrochloride salt]
Data returned: ++ (5% ≤ ++ <25%)

Data request: Report CE: cognitive enhancer (probability that activity matches class) from behaviors of compound-treated mice testing of CNC[C@H]1OCCCc2c(-c3ccccn3)cccc21 (single isomer, unassigned) [Compound 157, hydrochloride salt]
Data returned: + (LOQ ≤ + <5%)

Data request: Report CE: cognitive enhancer (probability that activity matches class) from behaviors of compound-treated mice testing of CNC[C@H]1OCCc2c(-c3ccncn3)cccc21 (single isomer, unassigned) [Compound 73, hydrochloride salt]
Data returned: + (LOQ ≤ + <5%)

Data request: Report CE: cognitive enhancer (probability that activity matches class) from behaviors of compound-treated mice testing of CNC[C@@H]1OCCc2cc(-c3cccnn3)ccc21 (single isomer, unassigned) [Compound 31, hydrochloride]
Data returned: + (LOQ ≤ + <5%)

Data request: Report CE: cognitive enhancer (probability that activity matches class) from behaviors of compound-treated mice testing of NC[C@H]1OCc2c(-c3ccccn3)cccc21 (single isomer, unassigned)
Data returned: ++ (5% ≤ ++ <25%)

Data request: Report CE: cognitive enhancer (probability that activity matches class) from behaviors of compound-treated mice testing of CNCC1OCCc2ccc(-c3ccncn3)cc21 (centres unmarked) [Compound 58, hydrochloride salt]
Data returned: + (LOQ ≤ + <5%)

Data request: Report CE: cognitive enhancer (probability that activity matches class) from behaviors of compound-treated mice testing of NC[C@@H]1OCc2c(-c3cccnc3)cccc21 [Compound 35, hydrochloride]
Data returned: + (LOQ ≤ + <5%)

Data request: Report CE: cognitive enhancer (probability that activity matches class) from behaviors of compound-treated mice testing of NC[C@H]1OCCCc2c(-c3ccncc3)cccc21 (single isomer, unassigned)
Data returned: + (LOQ ≤ + <5%)

Data request: Report CE: cognitive enhancer (probability that activity matches class) from behaviors of compound-treated mice testing of CNC[C@H]1OCCCc2c(-c3ccncn3)cccc21 (single isomer, unassigned) [Compound 165, hydrochloride salt]
Data returned: + (LOQ ≤ + <5%)

Data request: Report CE: cognitive enhancer (probability that activity matches class) from behaviors of compound-treated mice testing of NC[C@@H]1OCCc2c(-c3cnco3)cccc21 (single isomer, unassigned) [Compound 98, hydrochloride salt]
Data returned: + (LOQ ≤ + <5%)

Data request: Report CE: cognitive enhancer (probability that activity matches class) from behaviors of compound-treated mice testing of CNC[C@H]1OCCc2c(-c3ncc[nH]3)cccc21 [Compound 111, hydrochloride salt]
Data returned: + (LOQ ≤ + <5%)

Data request: Report CE: cognitive enhancer (probability that activity matches class) from behaviors of compound-treated mice testing of CNC[C@H]1OCCc2c(-c3ncco3)cccc21 [Compound 105, dihydrochloride]
Data returned: + (LOQ ≤ + <5%)

Data request: Report CE: cognitive enhancer (probability that activity matches class) from behaviors of compound-treated mice testing of CNC[C@@H]1OCCc2cc(-c3ncccn3)ccc21 [Compound 21, hydrochloride salt]
Data returned: ++ (5% ≤ ++ <25%)

Data request: Report CE: cognitive enhancer (probability that activity matches class) from behaviors of compound-treated mice testing of CNC[C@@H]1OCCc2ccc(-c3cccnc3)cc21 (single isomer, unassigned) [Compound 3, dihydrochloride]
Data returned: ++ (5% ≤ ++ <25%)

Data request: Report CE: cognitive enhancer (probability that activity matches class) from behaviors of compound-treated mice testing of CNC[C@@H]1OCCc2c(-c3ccon3)cccc21 (single isomer, unassigned) [Compound 90, hydrochloride salt]
Data returned: + (LOQ ≤ + <5%)
